Recorded values, source patent US20120101100A1.

# key: entry, value: inhibition at 1 µM
Molecular target: S. aureus GyrB ATPase (Staphylococcus aureus, UniProt P0A0K8)
Sequence (P0A0K8 whole entry): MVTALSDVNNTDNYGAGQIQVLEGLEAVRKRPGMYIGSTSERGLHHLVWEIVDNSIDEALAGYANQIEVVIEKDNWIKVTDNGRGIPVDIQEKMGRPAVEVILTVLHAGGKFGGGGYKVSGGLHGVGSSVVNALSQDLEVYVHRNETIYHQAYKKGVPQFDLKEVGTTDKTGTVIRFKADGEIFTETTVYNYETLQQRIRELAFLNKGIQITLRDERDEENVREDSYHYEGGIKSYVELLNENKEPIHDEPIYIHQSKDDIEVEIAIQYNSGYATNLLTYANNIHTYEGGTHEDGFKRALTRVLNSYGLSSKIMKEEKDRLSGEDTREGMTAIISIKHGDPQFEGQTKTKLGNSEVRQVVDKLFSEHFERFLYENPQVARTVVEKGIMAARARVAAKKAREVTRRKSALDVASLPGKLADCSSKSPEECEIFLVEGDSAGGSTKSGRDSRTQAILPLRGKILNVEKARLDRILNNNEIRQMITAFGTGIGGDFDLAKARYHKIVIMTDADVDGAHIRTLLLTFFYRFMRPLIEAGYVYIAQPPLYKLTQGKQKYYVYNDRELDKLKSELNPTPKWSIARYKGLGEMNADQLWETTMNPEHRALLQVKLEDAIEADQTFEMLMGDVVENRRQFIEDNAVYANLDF
Sequence (P0AES4 whole entry, further chain): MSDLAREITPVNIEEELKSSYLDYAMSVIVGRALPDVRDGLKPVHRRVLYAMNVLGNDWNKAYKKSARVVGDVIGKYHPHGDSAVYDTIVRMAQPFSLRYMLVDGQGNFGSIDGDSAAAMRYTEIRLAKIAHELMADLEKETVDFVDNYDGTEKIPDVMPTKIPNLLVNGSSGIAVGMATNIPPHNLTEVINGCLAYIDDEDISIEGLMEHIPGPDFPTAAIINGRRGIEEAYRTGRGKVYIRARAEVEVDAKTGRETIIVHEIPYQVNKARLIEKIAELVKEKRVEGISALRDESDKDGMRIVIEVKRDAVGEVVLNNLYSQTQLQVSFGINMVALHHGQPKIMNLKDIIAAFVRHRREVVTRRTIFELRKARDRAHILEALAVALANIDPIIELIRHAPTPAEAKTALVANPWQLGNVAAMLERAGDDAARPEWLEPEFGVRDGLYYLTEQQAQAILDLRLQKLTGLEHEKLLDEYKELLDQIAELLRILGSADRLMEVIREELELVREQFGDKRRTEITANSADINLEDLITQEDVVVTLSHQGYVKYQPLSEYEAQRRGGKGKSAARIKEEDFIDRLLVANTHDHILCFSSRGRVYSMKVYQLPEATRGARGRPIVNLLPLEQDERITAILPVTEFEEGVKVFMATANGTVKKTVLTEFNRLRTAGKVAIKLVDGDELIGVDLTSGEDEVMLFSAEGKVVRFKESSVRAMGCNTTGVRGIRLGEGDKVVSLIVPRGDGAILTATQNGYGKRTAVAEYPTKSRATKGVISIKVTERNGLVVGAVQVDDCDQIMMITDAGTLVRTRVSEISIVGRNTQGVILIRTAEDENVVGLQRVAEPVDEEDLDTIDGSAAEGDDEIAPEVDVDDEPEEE
Test: S. aureus (SAU) GyrB ATPase inhibition, malachite green phosphate detection (E. coli GyrA + S. aureus GyrB)
Type: biochemical
Details: compound concentration of 1.0 μM unless otherwise noted; average value where assay was carried out more than once; read-out: S. aureus (SAU) GyrB ATPase % Inhibition
endpoint-name: inhibition at 1 µM (%)

chemical-smiles: CCNC(=O)Nc1cc(-c2nc(C(F)(F)F)c(CNCCN3CCOCC3)s2)c(-c2cncc(-c3nnc(C)o3)c2)cn1
measured: 96
//
chemical-smiles: CCNC(=O)Nc1cc(-c2nc(C(F)(F)F)cs2)c(-c2ccnc(-c3nnc([C@@H]4COCCN4)o3)c2)cn1
measured: 118
//
chemical-smiles: CCNC(=O)Nc1cc(-c2nc(-c3cccc(OC)n3)cs2)c(-c2cncc(-c3nnc(C)o3)c2)cn1
measured: 101
